All figures here come from the domain aggregation screens of Martell et al. (2025).

method notes: soluble fraction after stress (log2 fold change); higher = more stays soluble; pooled small domains, quantitative proteomics
experimental parameters: stress: pH 4

sequence content: HMTRNGTVTFFNHDKGYGFIKDVLTQESVFVHINSLSEPINEQNKVSFEIEMGPRGSNAINVKLI
soluble fraction (log2): -1.86

sequence content: HMEFEIGQEDSKKSVKQFLYNTLRLSHGQVTALKRQERGILLNGERVFVTALLQEGDRLSLLLE
soluble fraction (log2): -1.24

sequence content: HMRSLATFEEEKIALRFWNYLQSEGIKSTLEEEGPRDWVIWVIDEEKIPSATQSLEKFNLNPDDPAFSN
soluble fraction (log2): -0.137

sequence content: HMDFTPDQIARLDDIISRYKDKPGGLIPVLEEAQVALEYLPIGVQKRIAKGLNLPLSRVYGVVTFYSFFTM
soluble fraction (log2): -0.451

sequence content: HMRKNVAGITPNVYGMGLKDAVYLLENAGYRVKVNGRGNVVRQSINSGTRIIKGQLIILDLD
soluble fraction (log2): 0.0848

sequence content: HMESNWLTYAKRIQSIADTGMTFAVDDFDKERYQELADISSKMLADLSNIPIGRIENLLGPLGQ
soluble fraction (log2): -1.26

sequence content: HMDIDLGAVEEQAVKGSGPGGQKMNKTSSGVLLRYRLGEELVLVKWTRERQHSLNRFLALRELVDEIEAR
soluble fraction (log2): -0.099

sequence content: HMYLLPVTSTELKGNYPNPFNPETTISFDLKDAERVNLSIYNLKGQLVRTLVNSDLPIGRHRLIWDGNDS
soluble fraction (log2): -0.609

====

method notes: soluble fraction after stress (log2 fold change); higher = more stays soluble; pooled small domains, quantitative proteomics
experimental parameters: stress: pH 4
measurement label: soluble fraction (log2)

sequence content: HMDQVLHQLVEVLRRSEIRISPAETLDAFKVLRNVGIDNKSLLREALALTLAKSIHEKIIFYETFDEFFT
measurement label: soluble fraction (log2)
value measured: -1.08
--
sequence content: HMLNENNHGEWSIRMSNGLVVRLGRDELNRSLRRSIMAYAGLAPNYRSSIEYIDARYLGGVALKTF
measurement label: soluble fraction (log2)
value measured: -0.159
--
sequence content: HMNEMSDTITRLLDAAETGIRLRGYHAVSFRDLAEELGIKSSSVHYYFRQKEDLGLAVVERY
measurement label: soluble fraction (log2)
value measured: -0.185
--
sequence content: HMEKKTILIPPVITVRALAEISQIPVNRLLQELIKNGVFTSINEKIDFDTAVIIGADLNLDIQLL
measurement label: soluble fraction (log2)
value measured: -0.984

====

Measured soluble fraction (log2), listed per entry for reference.
method notes: soluble fraction after stress (log2 fold change); higher = more stays soluble; pooled small domains, quantitative proteomics
experimental parameters: stress: pH 4

sequence content: HMIENITIELNKKALALDFELNKDLPEGVLETIPTLVSLMVRFDPLTVSYHFLRDYIDALLESNLNVDL
soluble fraction (log2): -0.56
//
sequence content: HMKSILSEIPGIGPKKRKSLMMQFGSVKNISEASLKDLSSTKGINSNLSKEIFNFFSVEKNN
soluble fraction (log2): 0.15
//
sequence content: HMNHTIEENDRVLILDPRGKKYLITVTNRVFHTNLGKLDISELIGKNYGDKIKSHMGKNFSILKPNLIDYI
soluble fraction (log2): 0.053
//
sequence content: HMLSEKELLELLNRAKSNYNGITKKGIEAIALKYQGYSNVEIANLYHVKANHISAWISRARSRLKADY
soluble fraction (log2): -0.0621
